- Target entity: T1, CRBN, Q96SW2;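 further: pooled lentiviral library of zinc finger degron-EGFP fusions in mCherry-positive Jurkat cells, FACS-sorted after compound exposure, with degron abundance counted by next-generation sequencing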
- T1 chain: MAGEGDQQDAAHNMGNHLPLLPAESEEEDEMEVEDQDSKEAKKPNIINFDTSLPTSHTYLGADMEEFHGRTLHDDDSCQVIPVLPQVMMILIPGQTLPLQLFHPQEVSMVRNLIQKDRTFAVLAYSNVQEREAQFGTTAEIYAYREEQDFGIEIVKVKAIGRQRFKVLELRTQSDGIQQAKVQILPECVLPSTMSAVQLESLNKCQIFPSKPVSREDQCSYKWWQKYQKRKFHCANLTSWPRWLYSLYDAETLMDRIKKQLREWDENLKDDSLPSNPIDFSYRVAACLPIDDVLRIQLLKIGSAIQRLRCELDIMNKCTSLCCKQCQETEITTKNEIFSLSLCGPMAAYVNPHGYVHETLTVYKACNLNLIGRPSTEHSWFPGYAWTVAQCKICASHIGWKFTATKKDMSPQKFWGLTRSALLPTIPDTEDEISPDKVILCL
- Assay text: log2 fold change of degron read counts, EGFP-low vs EGFP+ sorted cells (limma voom), compound-induced degradation; higher = more compound-induced degradation of the degron-EGFP fusion; degrons are variants of IKZF1/3 zinc finger 2; compound dose not given here
- Assay conditions: Jurkat; 18 h; compound: compound 22 (5-morpholino-thalidomide)
In all, about 8,300 sequences were measured (“log2 fold change of degron read counts, EGFP-low vs EGFP+ sorted cells (limma voom), compound-induced degradation”: median about -1.1, highest 2% from about 3.2 on). This is one part of a sample in which the highest values are shown more often than they occur.
Label fulfilled for high-side log2 fold change of degron read counts (at or above -0.9) and not fulfilled for low-side log2 fold change of degron read counts (below it).

// inclusive: log2 fold change of degron read counts at least -0.9? input: FRCPVCGAIFTQKGNLLRHIKL [46F_47R_49P_50V_52G_53A_54I_55F_67L_, Q9UKT9] not fulfilled

Another sequence: FQCDICGAIFTQKGNLLRHIKL [46F_47Q_49D_50I_52G_53A_54I_55F_67L_, Q9UKT9] fulfilled

Another sequence: FKCDICGAIFTQKGNLLRHIKL [46F_47K_49D_50I_52G_53A_54I_55F_67L_, Q9UKT9] not fulfilled

Another sequence: FQCPVCGAIFTQKGNLLRHIKL [46F_47Q_49P_50V_52G_53A_54I_55F_67L_, Q9UKT9] fulfilled

Another sequence: FRCNVCGAIFTQKGNLLRHIKL [46F_47R_49N_50V_52G_53A_54I_55F_67L_, Q9UKT9] not fulfilled

Another sequence: FHCPVCGAIFTQKGNLLRHIKL [46F_47H_49P_50V_52G_53A_54I_55F_67L_, Q9UKT9] fulfilled
